Biological target: KCNT1 (KNa1.1, Slack) (Homo sapiens, UniProt Q5JUK3)
Sequence (Q5JUK3 1-1230): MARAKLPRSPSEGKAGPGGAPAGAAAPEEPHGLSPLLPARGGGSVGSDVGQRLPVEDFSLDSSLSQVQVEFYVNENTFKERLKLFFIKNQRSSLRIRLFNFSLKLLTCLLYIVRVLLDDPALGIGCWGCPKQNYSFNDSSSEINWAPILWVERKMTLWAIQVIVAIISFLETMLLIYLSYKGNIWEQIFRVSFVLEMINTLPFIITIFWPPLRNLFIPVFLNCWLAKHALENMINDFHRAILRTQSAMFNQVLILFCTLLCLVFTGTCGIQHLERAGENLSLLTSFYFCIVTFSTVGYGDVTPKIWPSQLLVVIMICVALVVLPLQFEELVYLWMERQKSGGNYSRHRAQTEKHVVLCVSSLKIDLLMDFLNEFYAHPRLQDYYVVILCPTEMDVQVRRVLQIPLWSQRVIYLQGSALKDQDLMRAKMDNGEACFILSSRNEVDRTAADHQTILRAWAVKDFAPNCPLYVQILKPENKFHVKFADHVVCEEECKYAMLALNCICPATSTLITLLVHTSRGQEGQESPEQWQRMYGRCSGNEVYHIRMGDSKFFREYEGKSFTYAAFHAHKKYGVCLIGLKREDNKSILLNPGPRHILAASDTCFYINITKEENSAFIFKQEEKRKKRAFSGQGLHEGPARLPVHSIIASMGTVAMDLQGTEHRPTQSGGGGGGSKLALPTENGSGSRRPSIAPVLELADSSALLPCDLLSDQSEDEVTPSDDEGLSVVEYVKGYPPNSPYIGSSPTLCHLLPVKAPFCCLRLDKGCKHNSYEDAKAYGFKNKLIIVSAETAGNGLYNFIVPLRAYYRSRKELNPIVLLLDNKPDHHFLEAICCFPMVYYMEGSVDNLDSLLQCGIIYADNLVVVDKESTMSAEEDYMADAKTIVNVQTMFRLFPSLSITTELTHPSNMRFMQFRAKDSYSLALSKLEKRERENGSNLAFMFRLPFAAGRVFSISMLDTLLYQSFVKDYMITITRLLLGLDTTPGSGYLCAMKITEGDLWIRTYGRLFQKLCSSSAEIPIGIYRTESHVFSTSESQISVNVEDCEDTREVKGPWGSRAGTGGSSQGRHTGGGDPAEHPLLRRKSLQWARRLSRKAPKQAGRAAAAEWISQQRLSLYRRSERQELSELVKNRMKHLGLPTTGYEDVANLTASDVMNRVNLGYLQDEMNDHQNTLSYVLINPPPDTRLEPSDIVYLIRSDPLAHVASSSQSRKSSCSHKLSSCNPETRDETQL
Test: KCNT1 patch clamp assay (SyncroPatch 384PE, tetracycline inducible HEK-TREX cell line)
Settings: WT KCNT1, HEK-TREX cells, perforated patch, step from -80 mV to 0 mV, room temperature; read-out: WT (KCNT1 inhibition IC50)
readoutLabel: IC50

Answered examples (3):
Ask | Reported IC50 for Cc1cc(-c2cc(C(C)NC(=O)c3cc(C(F)(F)F)nn3C)n(C)n2)ccn1 (single isomer, unassigned) [Compound 1006] : what is it?
Reply | 1 to 20 µM

Ask | What does the record list as IC50 for CC(NC(=O)c1cc(C(F)(F)F)nn1C)c1cc(Oc2ccccc2)nn1C (centres unmarked) [Compound 1032] ?
Reply | 1 to 20 µM

Ask | Item under review: CC(NC(=O)c1cc(C(F)(F)F)nn1C)c1cc(-c2ccc(C#N)cc2)nn1C (centres unmarked) [Compound 1021] . Reported IC50?
Reply | 1 to 20 µM

Next:
Ask | Which IC50 is reported for this molecule? CCn1nc(-c2ccnc(C(F)(F)F)c2)cc1C(C)NC(=O)c1cc(C(F)(F)F)nn1C (single isomer, unassigned) [Compound 1007]
Reply | ≤ 1 µM

Ask | Item under review: CC(NC(=O)c1cc(C(F)(F)F)nn1C)c1cc(-c2ccnc(C(F)(F)F)c2)nn1C (centres unmarked) [Compound 1020] . Reported IC50?
Reply | ≤ 1 µM

Ask | For the molecule CC(NC(=O)c1cc(C(F)(F)F)nn1C)c1cc(-c2ccccc2)nn1C (single isomer, unassigned) [Compound 1011] , what IC50 is on record?
Reply | 1 to 20 µM

Ask | IC50 for CC(NC(=O)c1cc(C(F)(F)F)nn1C)c1cc(Nc2ccccc2)nn1C (centres unmarked) [Compound 1024] ?
Reply | 1 to 20 µM

Ask | Look at this molecule and give its reported IC50. Cn1nc(-c2ccnc(C3CC3)c2)cc1CNC(=O)c1cc(C(F)(F)F)nn1C [Compound 1038]
Reply | ≤ 1 µM

Ask | Reported IC50, molecule CC(C)c1cc(C(=O)NCc2cc(-c3ccnc(C(F)(F)F)c3)nn2C)n(C)n1 [Compound 1039] : ____
Reply | ≤ 1 µM

Ask | Which IC50 is reported for this molecule? Cc1cc(-c2cc(CNC(=O)c3cc(C(F)(F)F)nn3C)n(C)n2)c(F)cn1 [Compound 1041]
Reply | ≤ 1 µM

Ask | Name the reported IC50 value associated with the molecule CCn1nc(-c2ccnc(C(F)(F)F)c2)cc1C(C)NC(=O)c1cc(C(F)(F)F)nn1C (single isomer, unassigned) [Compound 1004]
Reply | ≤ 1 µM

Ask | Given CC(NC(=O)c1cc(C(F)(F)F)nn1C)c1cc(-c2ccnc(C(F)(F)F)c2)nn1C (single isomer, unassigned) [Compound 1001] , state its recorded IC50.
Reply | ≤ 1 µM

Ask | Can you share its IC50? I mean this molecule: CC(NC(=O)c1cc(C(F)(F)F)nn1C)c1cc(-c2ccc(C(F)(F)F)nc2)nn1C (centres unmarked) [Compound 1018]
Reply | 1 to 20 µM
